Assay: NCI Yeast Anticancer Drug Screen. Data for the sgs1 mgt1 strain (AID 161);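 note: 0% = growth of cultures given vehicle only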
Settings: S. cerevisiae sgs1 mgt1 strain, at 50.0 µM, stronger effect = higher value
This is part of a sample that, as a whole, favours compounds with a hit. Of some 79,000 tested, about 15% had one in any assay. Active and inactive are the calls of the source. Cut-off read from the data, not from the text of the source: active = growth inhibition above about 70%; inactive = the rest.
# Lookup of reported growth inhibition keyed by entry

Field: example entries. Status: answers known.
{"compound": "COc1cc2c(c([N+](=O)[O-])c1)NC(=O)C(c1ccccc1)S2 (configuration not stated)", "growth inhibition": "-3.45% (inactive)"}
{"compound": "C(=C(Sc1ccccc1)Sc1ccccc1)C(Sc1ccccc1)c1ccccc1 (configuration not stated)", "growth inhibition": "-5.35% (inactive)"}
{"compound": "CS/C(c1ccccc1)=[N+](/C)[O-]", "growth inhibition": "17.3% (inactive)"}
{"compound": "Cc1cc(C)c(C2CNCc3cc4c(cc32)CNCC4c2c(C)cc(C)cc2C)c(C)c1 (configuration not stated)", "growth inhibition": "-46% (inactive)"}

Prompt line: Look up growth inhibition: O=C(O)CCCCCC1=CCCCC1
Response line: 20.9% (inactive)

Prompt line: Look up growth inhibition: BrC1CCC(Br)C(Br)CCC1Br (configuration not stated)
Response line: 55.1% (inactive)

Prompt line: Look up growth inhibition: CCn1c(=O)c(C#N)c2n(CC)c3ccccc3n2c1=O
Response line: 19.4% (inactive)

Prompt line: Look up growth inhibition: O=C(O)CCSC1(SCCC(=O)O)CCCCC1
Response line: -8.55% (inactive)

Prompt line: Look up growth inhibition: COC(=O)C1=C(C(=O)OC)C23CC4CCC2(C(=O)C1O3)C4(C)C (configuration not stated)
Response line: 23% (inactive)

Prompt line: Look up growth inhibition: CC(C)OC(=O)CCCCCc1ccccc1
Response line: -29.1% (inactive)

Prompt line: Look up growth inhibition: CCc1c2c(cc3c1CC1(C3)Cc3cc4c(c(C(=O)OC)c3C1)CCCC4)CCCC2 (configuration not stated)
Response line: -20.8% (inactive)

Prompt line: Look up growth inhibition: CC1CN(C(C)(C)C)CO1 (configuration not stated)
Response line: -18.6% (inactive)

====

Assay: NCI Yeast Anticancer Drug Screen. Data for the bub3 strain (AID 167)
Details: S. cerevisiae bub3 mutant strain, at 50.0 µM, stronger effect = higher value
Compounds without any hit were thinned out: in the full panel of roughly 79,000, 15% have a hit.
attribute measured: growth inhibition (%)
Could you give me the number in %? Just the number is fine.

Field: example entries. Status: answers known.
{"compound": "CC(C)N=C(NC#N)NS(=O)(=O)c1cnccc1Nc1ccc(Cl)cc1", "result": -18.1}
{"compound": "C=C(C)COCc1ccc(C(C)(C)CC(C)(C)C)cc1", "result": -15.4}

Moving on to the next compound.
Prompt line: Look up growth inhibition: C/C(CC(=O)Nc1ccc(NC(=O)/C(C)=N/NS(=O)(=O)c2ccc(C)cc2)cc1)=N\NS(=O)(=O)c1ccc(C)cc1
Response line: -0.9

====

# Lookup of reported growth inhibition keyed by entry
Test: NCI Yeast Anticancer Drug Screen. Data for the bub3 strain (AID 167)
Conditions: S. cerevisiae bub3 mutant strain, at 50.0 µM, stronger effect = higher value
About 79,000 compounds went through this panel and 15% of them were active in at least one assay; those are over-represented in the sample as a whole.
Could you give me the number in %? Just the number is fine.

{"compound": "O=[N+]([O-])c1cccc(N=C2c3ccccc3CN2c2cccc([N+](=O)[O-])c2)c1", "attribute measured": "growth inhibition", "result": 11.5}
{"compound": "C1CCCN(NC2=NCCO2)CC1", "attribute measured": "growth inhibition", "result": 1.45}
{"compound": "N#Cc1ccc(CC(O)(c2ccccc2)c2ccccc2)cc1", "attribute measured": "growth inhibition", "result": 3.25}
{"compound": "CCN(CC)CCCNc1ncnc2onc(C)c12", "attribute measured": "growth inhibition", "result": 1.45}

Prompt line: Look up growth inhibition: CCOC(=O)c1cnc2[nH]ccn2c1=O
Response line: -6.55

Prompt line: Look up growth inhibition: CSC1(C(=O)O)C2CCC3C2CCC31 (configuration not stated)
Response line: 51.2

Prompt line: Look up growth inhibition: N#CCc1c(F)c(F)c(F)c(F)c1F
Response line: 10.5
